Can you tell me protein stability index for the items I'm about to list?
B1: TOR1AIP2 (parent)
chain: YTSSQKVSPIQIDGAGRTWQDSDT

Variants of: B1
protocolText: protein stability index of a GFP-peptide fusion (GPS, HEK-293T) (PSI 1-6); higher = more stable;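 also: lentivirally expressed fusions sorted by FACS into six bins by GFP to DsRed ratio, PSI derived from sequencing read proportions per bin multiplied by bin number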
conditionSet: c terminus: a fixed tail appended
Field format: numeric only.

Any idea what its protein stability index is? The variant is I12P 3.99

Do the same for S4H please 3.37

Also A15S ? 2.95

Subsequent entry: Q11C 2.47

Can you handle I12N next? 3.65

Try this variant too: Q5K 3.45

Try this variant too: I12W 2.55

Entry to check: W19P 4.67

What would you report for Q11N ? 3.4

And what about the variant D21R ? 2.6

Also, S3V please. 3.3
